Biological target: T1, biotinylated recombinant mouse IL-12Rβ2 (mouse, UniProt P97378 24-637, random biotinylated)
T1 construct: Recombinant protein produced in-house, biotinylated; also called mIL-12RB2; mouse IL-12RB2
T1 sequence: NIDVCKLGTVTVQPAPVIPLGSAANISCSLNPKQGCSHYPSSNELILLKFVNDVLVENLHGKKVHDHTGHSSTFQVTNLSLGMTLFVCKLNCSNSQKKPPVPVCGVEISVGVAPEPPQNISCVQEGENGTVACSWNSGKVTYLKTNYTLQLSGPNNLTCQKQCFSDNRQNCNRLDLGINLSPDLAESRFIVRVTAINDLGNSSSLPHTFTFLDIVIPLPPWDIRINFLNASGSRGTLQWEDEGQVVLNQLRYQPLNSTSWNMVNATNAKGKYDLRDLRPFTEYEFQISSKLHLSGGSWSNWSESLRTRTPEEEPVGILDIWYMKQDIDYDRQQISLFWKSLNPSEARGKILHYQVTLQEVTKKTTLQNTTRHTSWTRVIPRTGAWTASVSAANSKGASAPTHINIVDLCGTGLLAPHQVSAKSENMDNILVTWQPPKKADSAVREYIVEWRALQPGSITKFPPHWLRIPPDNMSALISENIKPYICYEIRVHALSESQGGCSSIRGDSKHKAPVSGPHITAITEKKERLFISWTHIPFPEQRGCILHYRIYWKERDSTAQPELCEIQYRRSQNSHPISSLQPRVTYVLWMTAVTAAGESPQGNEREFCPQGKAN
Test: ELISA, periplasmic extract on biotinylated mIL-12Rβ2, signal over control wells

{"BINDER": "anti-IL-12Rβ2 VHH clone 20504 (VHH, not shown: small tags and cut ends, tested as periplasmic extract; also called 3CAM3) VHH: QVQLQESGGGLVQAGGSLKLSCAATGFILDYVGVGWFRQAPGKERDFVAAISRDARITDYADSVKGRFTISRDNAKNTAYLQMNSLNPEDTAVYFCAAAYTYSGSHYVTARSSDYHTWGQGTQVTVSS", "ELISA binding mIL-12RB2/control": "14.5 ratio"}
{"BINDER": "anti-IL-12Rβ2 VHH clone 20505 (VHH, not shown: small tags and cut ends, tested as periplasmic extract; also called 3CAM4) VHH: QVQLQESGGGSVQAGGSLRLSCAASGRTFSSYGMGWFRQAPGKEREFVAAISRDARITDYADSVKGRFTISRDNAKNTAYLEMNSLNPEDTAVYFCAAAYTYSGSHYVTARSSDYHSWGQGTQVTVSS", "ELISA binding mIL-12RB2/control": "20.2 ratio"}
{"BINDER": "anti-IL-12Rβ2 VHH clone 20498 (VHH, not shown: small tags and cut ends, tested as periplasmic extract; also called 2CAM73) VHH: QVQLQESGGGLVQAGGSLRLSCASSGRTFSSRTVGWFRQAPGKERYFVAAISRDTAYTDYADSVKGRFTISRGNAKNTVYLQMNSLNPEDTAVYYCAASHIYSGSHYISARSSDYMYWGQGTQVTVSS", "ELISA binding mIL-12RB2/control": "6.62 ratio"}
{"BINDER": "anti-IL-12Rβ2 VHH clone 20553 (VHH, not shown: small tags and cut ends, tested as periplasmic extract; also called 3CAMS73) VHH: QVQLQESGGGLVQPGGSLRLSCAASGRTFSTYAMGWFRQAPGKEREFVAAISWSGGRTYYADSVKGRFTISRDNAKNTAYLQMSSLIPEDTAVYYCAADPADYTGSYYYQRSYDYWGQGTQVTVSS", "ELISA binding mIL-12RB2/control": "15.2 ratio"}
{"BINDER": "anti-IL-12Rβ2 VHH clone 20466 (VHH, not shown: small tags and cut ends, tested as periplasmic extract; also called 2CAM2) VHH: QVQLQESGGGLVQAGDSLRLSCAPSGRTFSTYAMGWFRQAPGKEREFVAGISWSGGRTYYADSVKGRFTISRDNAKNTVYLQMNSLKPEDTAVYYCAADPMDYSGSLYAQRSYDYWGQGTQVTVSS", "ELISA binding mIL-12RB2/control": "8.48 ratio"}
{"BINDER": "anti-IL-12Rβ2 VHH clone 20529 (VHH, not shown: small tags and cut ends, tested as periplasmic extract; also called 3CRMS94) VHH: QVQLQESGGGSVQAGDSLRLSCTASGSIFAIDDMYWYRQAPGKQREFVAYITATNSANYLDSVNGRFTISRDNAKNSVYLQMNSLKPEDTAVYYCNAKQIVGFQIDEYWGQGTQVTVSS", "ELISA binding mIL-12RB2/control": "13.2 ratio"}
{"BINDER": "anti-IL-12Rβ2 VHH clone 21060 (VHH, not shown: small tags and cut ends, tested as periplasmic extract; also called 3CRHM73) VHH: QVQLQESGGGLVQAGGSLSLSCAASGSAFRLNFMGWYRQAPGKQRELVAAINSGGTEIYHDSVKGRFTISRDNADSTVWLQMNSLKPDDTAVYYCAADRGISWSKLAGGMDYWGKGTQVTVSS", "ELISA binding mIL-12RB2/control": "26.3 ratio"}
{"BINDER": "anti-IL-12Rβ2 VHH clone 20480 (VHH, not shown: small tags and cut ends, tested as periplasmic extract; also called 2CAM36) VHH: QVQLQESGGGLVQAGGSLRLSCAASGRTFSSYGMGWFRQAPGKEREFVAAISRDARITDYADSVKGRFTISRDNAKNTAYLEMNSLNPEDTAVYFCAAAYTYSGSHYVTARSSDYHSWGQGTQVTVSS", "ELISA binding mIL-12RB2/control": "18.1 ratio"}
{"BINDER": "anti-IL-12Rβ2 VHH clone 20478 (VHH, not shown: small tags and cut ends, tested as periplasmic extract; also called 2CAM30) VHH: QVQLQESGGGLVQAGGSLTLSCAASGMPISFNVLGWFRQIPGKERDFVAAISRDARITDYADSVKGRFTISRDNVKNTVYLQMNSLNPEDTAVYFCAAAYTYSGSHYVTARSSDYHSWGQGTQVTVSS", "ELISA binding mIL-12RB2/control": "8.78 ratio"}
{"BINDER": "anti-IL-12Rβ2 VHH clone 20456 (VHH, not shown: small tags and cut ends, tested as periplasmic extract; also called 3CRM14) VHH: QVQLQESGGGLVQPGGSLTLSCTASGSIFAIDDMYWYRQAPGKQREFVAYITATNSANYLDSVNGRFTISRDNAKNSVYLQMNSLKPEDTAVYYCNAKQIVGFQIDEYWGQGTQVTVSS", "ELISA binding mIL-12RB2/control": "12.1 ratio"}
{"BINDER": "anti-IL-12Rβ2 VHH clone 20512 (VHH, not shown: small tags and cut ends, tested as periplasmic extract; also called 3CAM57) VHH: QVQLQESGGGLVQAGGSLRLSCTPSGRTFSTLAMGWFRQAPGKEREVVATISWSGGRTYYASSVKSRFTISRDNAKNTAYLQMNSLRPDDTAVYYCAARGTDYGAYDYWGQGTQVTVSS", "ELISA binding mIL-12RB2/control": "47.4 ratio"}
{"BINDER": "anti-IL-12Rβ2 VHH clone 21064 (VHH, not shown: small tags and cut ends, tested as periplasmic extract; also called 3CRHM200) VHH: QVQLQESGGGLVQPGGSLRLSCAASGRTFSNYAMAWFRQAPGTEREFVAGLSGSGGDTAFYDNSVMGRFTISRDSAKNTMWLQINNLKPEDTAVYYCAAATHVVVSYGLVRRRGTYDYWGQGTQVTVSS", "ELISA binding mIL-12RB2/control": "5.37 ratio"}
{"BINDER": "anti-IL-12Rβ2 VHH clone 20527 (VHH, not shown: small tags and cut ends, tested as periplasmic extract; also called 3CRMS90) VHH: QVQLQESGGGLVQAGGSLRLSCAASGFTLSTYAMSWVRQAPGKGLEWVSSISSSGASTNYADSVKGRFTISRDNAKNTLYLQMNSLKPEDTAVYYCAKASQNYSPPGQGTQVTVSS", "ELISA binding mIL-12RB2/control": "9.93 ratio"}
{"BINDER": "anti-IL-12Rβ2 VHH clone 20483 (VHH, not shown: small tags and cut ends, tested as periplasmic extract; also called 2CAM41) VHH: QVQLQESGGGLVQAGGSLRLSCAASGRTFSNSVIGWFRQAPGKEREFVAALSWSAGSEFYVDSFKGRFSISRDNAKNTVYLQMNSLKPEDTAVYYCAAKNPPHRWSDIGKSPQYAYWGQGTQVTVSS", "ELISA binding mIL-12RB2/control": "4.68 ratio"}
{"BINDER": "anti-IL-12Rβ2 VHH clone 20474 (VHH, not shown: small tags and cut ends, tested as periplasmic extract; also called 2CAM16) VHH: QVQLQESGGGLVQAGGSLRLSCAASGFTFDDYTIGWFRQAPGKEREFVAALSWSAGSTFFTDSVKDRFSISRDNAKNTVLLQMNSLKPEDTAVYYCAAKNPPHRWSDITKSLQYAYWGQGTQVTVSS", "ELISA binding mIL-12RB2/control": "6.43 ratio"}
